Hi there, I'd appreciate the recorded activation factor for every entry that follows.
Target: Intestinal-type alkaline phosphatase (Homo sapiens) (UniProt P09923)
Sequence (P09923 whole entry, looked up): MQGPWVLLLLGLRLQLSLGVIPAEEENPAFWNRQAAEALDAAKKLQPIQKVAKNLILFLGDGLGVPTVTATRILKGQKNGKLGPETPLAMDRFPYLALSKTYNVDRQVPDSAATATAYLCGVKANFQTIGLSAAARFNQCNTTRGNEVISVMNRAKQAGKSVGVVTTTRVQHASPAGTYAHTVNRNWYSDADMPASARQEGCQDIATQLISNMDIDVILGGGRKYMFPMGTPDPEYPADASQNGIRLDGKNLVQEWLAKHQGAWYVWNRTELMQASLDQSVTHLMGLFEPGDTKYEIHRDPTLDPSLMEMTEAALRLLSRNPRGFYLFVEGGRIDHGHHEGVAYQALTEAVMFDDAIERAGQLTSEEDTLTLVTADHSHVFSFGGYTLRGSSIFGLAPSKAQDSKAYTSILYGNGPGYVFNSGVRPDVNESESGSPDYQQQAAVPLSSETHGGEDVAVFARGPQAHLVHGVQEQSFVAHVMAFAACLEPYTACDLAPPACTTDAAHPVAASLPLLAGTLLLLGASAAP
Assay: human IAP activators, primary screen, biochemical, luminescence, uHTS (AID 2524)
Conditions: purified human IAP, CDP-Star luminescence, 30 min; at 10 µM; hits give high values; 1 = vehicle-only enzyme, 0 = enzyme-free background
The campaign covered roughly 330,000 compounds. About 540 (0.16%) were called active. Many of the other results were omitted from the sample, so actives are more common in it than they were.
Give bare numbers.

Solved entries:
| Compound | activation factor |
| --- | --- |
| CCOCCCn1c(SCC(=O)Nc2cc(OC)ccc2OC)nc2ccccc2c1=O | 0.95 |
| O=C(NNC(=S)NCc1ccccc1)c1ccc(OC(F)F)cc1 | 0.898 |
| Oc1ccc2nc(Cc3ccccc3)[nH]c2c1 | 0.985 |
| CN(Cc1nc2ccc(F)cc2[nH]1)Cc1nc(CC2CC2)no1 | 0.896 |
| CCOc1ccc(C(=O)COC(=O)c2ccc(-n3cnnn3)cc2)cc1 | 1.05 |

Give one value of activation factor per listed compound.
1. Cc1ccc(S(=O)(=O)N2[C@@H](c3cccc(Cl)c3)C(C(=O)O)=CC[C@H]2c2ccc(Cl)c(Cl)c2)cc1
2. O=C(Nc1ccccc1C(F)(F)F)N1CCCC1c1cccnc1 (stereo unspecified)
3. Cc1ccc(S(=O)(=O)N/N=C(\c2ccccc2)C2CC2)cc1
4. O=S(=O)(CCc1nc2ccccc2o1)c1ccc(Cl)cc1
5. COc1ccc(CCC(C)N2CCc3ccccc3C2)cc1 (stereo unspecified)

stdout:
[1.09, 0.942, 1.3, 0.959, 0.983]

stdin: Kindly state the measured activation factor obtained for Cc1cc(=O)n2nc(N3CCCC(C(=O)NCc4cccc(Cl)c4)C3)sc2n1 (stereo unspecified) with Intestinal-type alkaline phosphatase (Homo sapiens) (UniProt P09923).
stdout: 1.28

----------
Biological target: Intestinal-type alkaline phosphatase (Homo sapiens)
Assay: human IAP activators, primary screen, biochemical, luminescence, uHTS (AID 2524)
Conditions: purified human IAP, CDP-Star luminescence, 30 min; at 10 µM; hits give high values; 1 = vehicle-only enzyme, 0 = enzyme-free background
Hit rate of the full screen: of about 330,000 compounds, about 540 (0.16%) were called active. What follows is part of a selection rich in actives, with near analogues and random picks from the rest.
Observed property: activation factor
One number for each entry.

Consider the reported activation factor for these molecules:
| Molecule | Test value |
| --- | --- |
| Cc1cnc(C(=O)OCC(=O)Nc2ccc(Cl)cc2Cl)cn1 | 1.07 |
| CCCCCCCCc1c(O)nc(-n2[nH]c(C)c(CCO)c2=O)[nH]c1=O | 2.2 |
| COc1cc(NS(=O)(=O)c2ccc(N/C=C(\C=O)c3nc4cc(Cl)ccc4o3)cc2)nc(OC)n1 | 1.26 |
| O=C(Nc1sc2c(c1-c1nc3ccccc3[nH]1)CCCC2)C1CC1 | 1.06 |

Your task in this section: give activation factor for each listed record.
1. Cc1ccc(CN2CCC(n3nccc3NC(=O)CCCc3ccccc3)CC2)o1
2. COc1ccc(S(=O)(=O)N2CCN(CC(=O)NCC3(N4CCOCC4)CCCCC3)CC2)cc1
3. COc1cccc(-c2cccc(NC(=O)C3CCN(C4CCC4)CC3)c2)c1
4. COc1ccc(C(=O)NNc2cc(C)nc(NNC(=O)c3ccc(OC)cc3)n2)cc1
5. COc1cc(NC(=O)COC(=O)CSc2ccc3ccccc3c2)c(C)cc1[N+](=O)[O-]
6. COc1cc(NC(=O)COC(=O)c2cnc(C)cn2)c(C)cc1[N+](=O)[O-]
7. CC(Oc1ccc(F)cc1F)C(=O)/C=C/N(C)C (configuration not stated)
8. Cc1cccc(C(=O)N[C@H](C(=O)NCc2cccs2)C(C)C)c1

stdout:
1: 1.13; 2: 0.925; 3: 1.23; 4: 2.25; 5: 1.12; 6: 2.53; 7: 1.1; 8: 1.11

// provenance: PubChem BioAssay AID2524
